Tested target: Recombinant human liver GK1 (GST-GK) (Homo sapiens, UniProt P35557)
Construct: made in house; host or cells: E. coli
Sequence (P35557 1-466 isoform P35557-2): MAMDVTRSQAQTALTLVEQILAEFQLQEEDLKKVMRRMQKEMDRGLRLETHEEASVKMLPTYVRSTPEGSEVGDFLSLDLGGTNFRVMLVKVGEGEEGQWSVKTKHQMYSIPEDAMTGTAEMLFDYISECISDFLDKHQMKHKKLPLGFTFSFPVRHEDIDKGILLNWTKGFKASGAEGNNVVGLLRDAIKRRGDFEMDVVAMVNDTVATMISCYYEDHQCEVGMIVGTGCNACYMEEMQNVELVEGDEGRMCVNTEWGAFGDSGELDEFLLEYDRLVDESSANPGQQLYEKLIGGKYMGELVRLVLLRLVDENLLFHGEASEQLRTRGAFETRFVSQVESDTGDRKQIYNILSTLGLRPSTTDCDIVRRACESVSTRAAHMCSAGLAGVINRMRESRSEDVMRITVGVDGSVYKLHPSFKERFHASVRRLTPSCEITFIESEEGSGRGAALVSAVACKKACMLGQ
Run description: In vitro glucokinase activity assay (G6PDH-coupled, NADH, OD340)
Type: biochemical
Applied conditions: concentration of activator that produced a 50% increase in the activity of GK; 5 mM D-glucose, 30° C.
Measurement label: log10 SC1.5 (log10 of the value in µM)
Scale: log10; quantity: SC1.5; unit before log: µM

>>> print(df.to_string())
                                   compound  measurement_label  test_result
0  N#Cc1ccc(C(CC2CCCC2)c2cc3cc(F)cnc3[nH]2)cc1 (stereo not shown)        log10 SC1.5        -0.22
1  CC(C)CC(c1ccc(S(=O)(=O)CCO)cc1)c1cc2cc(F)cnc2[nH]1 (stereo not shown)        log10 SC1.5        -0.07

As a next step, examine the compound that follows.
The compound CS(=O)(=O)c1ccc(C(CC2CCCC2)c2cc3cc(C(=O)NCCO)cnc3[nH]2)cn1 (stereo not shown) , tested on Recombinant human liver GK1 (GST-GK) (Homo sapiens, UniProt P35557), showed log10 SC1.5 of 0.74
